Molecular target: RNA Polymerase II (Homo sapiens, UniProt P24928)
Construct: HeLaScribe® Nuclear extract in vitro transcription system (Promega, #E3092); host or cells: HeLa nuclear extract (purchased)
Test: RNA Polymerase II assay (HeLaScribe nuclear extract in vitro transcription system, RT-PCR quantification of mRNA)
Assay type: biochemical
Starred links: 1 amine or outer side, 2 acyl side, 3 side chain; linkers in the order of their positions; H or OH if unused. Positions of bridges follow the written chain, without caps; N, C: chain ends. Non-standard residues stand in square brackets, D forms with d. Residues, ends and D or L forms follow the SMILES beside them. Trp(2-yl) = O=C([C@H](Cc1c([*:3])[nH]c2ccccc12)N[*:1])[*:2]; Ile(4R-OH,5-OH) = C[C@H]([C@H](N)C(=O)O)[C@@H](O)CO; Hyp = O=C(O)[C@@H]1C[C@@H](O)CN1; Ac3c = NC1(C(=O)O)CC1; Aib = CC(C)(N)C(=O)O
Listed here: items and their measured IC50.
Could you give me the number in nM? Just the number is fine.

See these solved cases before continuing.
{"COMPOUND": "CC[C@H](C)[C@@H]1NC(=O)CNC(=O)[C@@H]2Cc3c([nH]c4ccccc34)SC[C@H](NC(=O)CNC1=O)C(=O)N[C@@H](CC(N)=O)C(=O)N1C[C@H](O)C[C@H]1C(=O)N[C@@H]([C@@H](C)[C@@H](O)CO)C(=O)N2 [Compound 7d] (cyclo(CN[Hyp][Ile(4R-OH,5-OH)][Trp(2-yl)]GIG); thioether 1-5)", "RECORDED_METRIC": "IC50", "RECORDED_RESULT": 6.8}
{"COMPOUND": "CC[C@H](C)[C@@H]1NC(=O)CNC(=O)[C@@H]2Cc3c([nH]c4cc(O)ccc34)[S@+]([O-])C[C@H](NC(=O)CNC1=O)C(=O)N[C@@H](CC(N)=O)C(=O)N1C[C@H](O)C[C@H]1C(=O)N[C@@H]([C@@H](C)[C@@H](O)CO)C(=O)N2 [Compound 7f, Alpha-amanitin, reference compound]", "RECORDED_METRIC": "IC50", "RECORDED_RESULT": 2.7}
{"COMPOUND": "CC[C@H](C)[C@@H]1NC(=O)CNC(=O)[C@@H]2Cc3c([nH]c4ccccc34)SC[C@H](NC(=O)C3(CC3)NC1=O)C(=O)N[C@@H](CC(N)=O)C(=O)N1C[C@H](O)C[C@H]1C(=O)N[C@@H]([C@@H](C)[C@@H](O)CO)C(=O)N2 [Compound 7r] (cyclo([Ac3c]CN[Hyp][Ile(4R-OH,5-OH)][Trp(2-yl)]GI); thioether 2-6)", "RECORDED_METRIC": "IC50", "RECORDED_RESULT": 26}

Now look at this entry.
Prompt line: Entry under review: CC[C@H](C)[C@@H]1NC(=O)CNC(=O)[C@@H]2Cc3c([nH]c4ccccc34)SC[C@H](NC(=O)C(C)(C)NC1=O)C(=O)N[C@@H](CC(N)=O)C(=O)N1C[C@H](O)C[C@H]1C(=O)N[C@@H]([C@@H](C)[C@@H](O)CO)C(=O)N2 [Compound 7m] (cyclo([Aib]CN[Hyp][Ile(4R-OH,5-OH)][Trp(2-yl)]GI); thioether 2-6) . Reported IC50?
Response line: 71
